# measured_target: human mGluR5a receptor (Homo sapiens, UniProt P41594)
# Construct: cDNA subcloned into pcDNA3.1(-)
# Sequence (P41594 21-1180 isoform P41594-2 limits assumed): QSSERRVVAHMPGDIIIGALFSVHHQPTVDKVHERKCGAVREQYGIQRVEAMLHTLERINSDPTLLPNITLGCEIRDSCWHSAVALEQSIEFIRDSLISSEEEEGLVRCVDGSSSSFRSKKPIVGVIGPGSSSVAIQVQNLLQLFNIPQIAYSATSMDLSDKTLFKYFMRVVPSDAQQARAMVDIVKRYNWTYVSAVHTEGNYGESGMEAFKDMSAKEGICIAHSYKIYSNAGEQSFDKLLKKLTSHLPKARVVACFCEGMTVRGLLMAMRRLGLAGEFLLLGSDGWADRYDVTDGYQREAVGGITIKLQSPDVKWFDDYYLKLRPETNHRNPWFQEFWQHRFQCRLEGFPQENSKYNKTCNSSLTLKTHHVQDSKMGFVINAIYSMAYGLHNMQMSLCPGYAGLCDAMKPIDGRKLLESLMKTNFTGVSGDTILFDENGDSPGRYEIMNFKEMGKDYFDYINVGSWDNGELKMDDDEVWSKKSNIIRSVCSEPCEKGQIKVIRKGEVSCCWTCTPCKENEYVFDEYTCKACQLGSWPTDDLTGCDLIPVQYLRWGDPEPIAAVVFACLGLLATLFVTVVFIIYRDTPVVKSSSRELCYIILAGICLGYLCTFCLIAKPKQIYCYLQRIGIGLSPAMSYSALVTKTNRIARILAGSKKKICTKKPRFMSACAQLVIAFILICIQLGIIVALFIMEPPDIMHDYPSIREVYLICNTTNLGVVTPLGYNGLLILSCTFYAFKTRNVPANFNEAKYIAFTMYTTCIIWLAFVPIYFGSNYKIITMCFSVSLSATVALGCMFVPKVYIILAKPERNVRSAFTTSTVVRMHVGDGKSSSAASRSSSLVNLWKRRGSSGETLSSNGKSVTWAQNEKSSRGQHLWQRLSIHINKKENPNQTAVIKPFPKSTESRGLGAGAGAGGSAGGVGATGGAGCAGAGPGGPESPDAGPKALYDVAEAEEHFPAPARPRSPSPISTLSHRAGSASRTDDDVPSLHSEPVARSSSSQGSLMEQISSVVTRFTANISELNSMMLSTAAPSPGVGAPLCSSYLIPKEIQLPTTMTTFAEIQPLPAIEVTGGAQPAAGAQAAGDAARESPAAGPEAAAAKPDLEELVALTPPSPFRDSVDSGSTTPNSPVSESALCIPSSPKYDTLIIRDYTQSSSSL
# experiment_summary: Cell-based functional Ca2+ mobilization assay (FDSS), potentiation of glutamate EC20 response
# setup_conditions: HEK cells transfected with human mGluR5 (H10H or H12H); in presence of EC20 glutamate

molecule	bound_type	pEC50
O=C1c2cc(COc3ccccc3)nn2CCN1c1ccc(F)cc1	=	7.14
CN(C)c1nc(N2CCn3nc(COc4ccccc4)cc3C2=O)ccc1F	=	7.40
COc1cc(N2CCn3nc(COc4ccccc4)cc3C2=O)nc(OC)n1	=	6.91
Cc1cc(N2CCn3nc(COc4ccccc4)cc3C2=O)ccc1F	=	7.58
O=C1c2cc(COc3ccccc3)nn2CCN1c1ccc2nccc(Cl)c2c1	=	7.34
O=C1c2cc(COc3ccccc3)nn2CCN1c1ccccn1	=	6.06
O=C1c2cc(COc3ccnnc3)nn2CCN1c1ccc(F)cc1	<	5.00
Cc1nc(N2CC(C)n3nc(COc4ccccc4)cc3C2=O)ccc1F (single isomer, unassigned)	=	7.00
O=C1c2cc(COc3ccccc3)nn2CCN1c1ccc(F)cc1F	=	6.94
Cc1ccnc(OCc2cc3n(n2)CCN(c2ccc(F)cc2)C3=O)c1F	=	5.76
CC1Cn2nc(COc3ccccc3)cc2C(=O)N1c1ccc(F)cc1 (stereo not shown) [Example 157]	=	6.24
CC(C)c1cccc(N2CCn3nc(COc4ccccn4)cc3C2=O)n1	=	6.36
O=c1[nH]ccn2nc(COc3ccccc3)cc12	<	4.52
N#Cc1cccc(OCc2cc3n(n2)CCN(CC2CC2)C3=O)c1	<	4.52
COc1nc(N2CCn3nc(COc4ccccc4)cc3C2=O)ncc1F	=	7.19
O=C1c2cc(COc3ccncn3)nn2CCN1c1ccc(F)cc1	=	5.43
CC1Cn2nc(COc3ccccc3)cc2C(=O)N1c1ccc(F)cn1 (stereo not shown)	=	6.05
COc1cncc(N2CCn3nc(COc4ccccc4)cc3C2=O)n1	=	6.98
COc1nccc(N2CCn3nc(COc4ccc(F)cc4)cc3C2=O)n1	=	6.59

----------
compound	units_symbol	bound_type	melting point
O=C1c2cc(COc3ccccc3)nn2CCN1c1ncc(F)cn1 [Example 126]	°C	=	161.3
C[C@@H]1Cn2nc(COc3ccccc3)cc2C(=O)N1CC1CC1 [Example 137]	°C	=	64.6
Cc1nc(N2CC(C)n3nc(COc4ccc(F)cc4)cc3C2=O)ccc1F (racemic) [Example 236]	°C	=	123.5
Cc1cccc(N2CCn3nc(COc4ccccc4)cc3C2=O)n1 [Example 10]	°C	=	129.7
O=C1c2cc(COc3ccc(F)cc3)nn2CCN1c1ccc(F)cn1 [Example 179]	°C	>	300
N#Cc1ccnc(OCc2cc3n(n2)CCN(c2ccc(F)cc2)C3=O)c1 [Example 193]	°C	=	202.6
Cc1cncc(N2CCn3nc(COc4ccccc4)cc3C2=O)c1 [Example 22]	°C	=	155.3
O=C1c2cc(COc3ccccc3)nn2CCN1c1cccc(CF)n1 [Example 76]	°C	=	111.3
Cc1nc(N2CCn3nc(COc4ccccc4)cc3C2=O)ncc1F [Example 90]	°C	=	177.1
CN(C)c1ccnc(OCc2cc3n(n2)CCN(c2ccc(F)cc2)C3=O)c1 [Example 312]	°C	>	300
O=C1c2cc(COc3ccccc3)nn2CCN1CC1CC1(F)F (stereo not shown) [Example 28]	°C	=	180.2
CC1CN(c2ccc(F)cc2)C(=O)c2cc(COc3ccccc3)nn21 (racemic) [Example 19]	°C	=	99.5
Cc1cccc(OCc2cc3n(n2)CCN(c2ccc(F)cc2)C3=O)c1 [Example 166]	°C	=	182.5
COc1cnc(N2CCn3nc(COc4ccccc4)cc3C2=O)nc1OC [Example 107]	°C	=	169.6
O=C1c2cc(COc3ccc(F)cn3)nn2CCN1c1ccc(F)cc1 [Example 181]	°C	=	239.4
COc1cccc(N2CCn3nc(COc4ccc(F)cc4)cc3C2=O)c1 [Example 220]	°C	=	130.4
CC(C)c1cccc(N2CCn3nc(COc4ccccc4)cc3C2=O)n1 [Example 111]	°C	=	101.8
Cc1ccccc1N1CCn2nc(COc3ccc(F)cc3)cc2C1=O [Example 223]	°C	=	148.2
COc1cc(N2CCn3nc(COc4ccccc4)cc3C2=O)nc(C)n1 [Example 105]	°C	=	131.9

----------
# measured_target: human mGluR5a receptor (Homo sapiens, UniProt P41594)
# Construct: cDNA subcloned into pcDNA3.1(-)
# experiment_summary: Cell-based functional Ca2+ mobilization assay (FDSS), potentiation of glutamate EC20 response
# setup_conditions: HEK cells transfected with human mGluR5 (H10H or H12H); in presence of EC20 glutamate
# Method: Human embryonic kidney (HEK) cells transfected with rat mGluR5 were plated in clear bottom assay plates for assay in a Functional Drug Screening System (FDSS). […] After establishment of a fluorescence baseline for twelve seconds, the compounds of the present invention were added to the cells, and the response in cells was measured. […] Five minutes later, an mGluR5 agonist (e.g., glutamate, 3,5-dihydroxyphenylglycine, or quisqualate) was added to the cells, and the response of the cells was measured. […]

compound	measured_target	pEC50
O=C1c2c(Cl)c(COc3ccccc3)nn2CCN1CC1CC1 [Example 259]	human mGluR5a receptor (Homo sapiens, UniProt P41594)	<4.52
Cc1nc2cc(N3CCn4nc(COc5ccccc5)cc4C3=O)ccc2s1 [Example 367]	human mGluR5a receptor (Homo sapiens, UniProt P41594)	7.06
CC1CNC(=O)c2cc(COc3ccccc3)nn21 (racemic) [Example 250]	human mGluR5a receptor (Homo sapiens, UniProt P41594)	<5.00
O=C1c2cc(COc3ccccc3)nn2CCN1c1cccc(C2CCNCC2)n1 [Example 275]	human mGluR5a receptor (Homo sapiens, UniProt P41594)	<4.52
O=C1c2cc(COc3cccnc3)nn2CCN1CC1CC1 [Example 170]	human mGluR5a receptor (Homo sapiens, UniProt P41594)	<5.00

----------
# measured_target: human mGluR5a receptor (Homo sapiens)
# Construct: cDNA subcloned into pcDNA3.1(-)
# experiment_summary: Cell-based functional Ca2+ mobilization assay (FDSS), potentiation of glutamate EC20 response
# setup_conditions: HEK cells transfected with human mGluR5 (H10H or H12H); in presence of EC20 glutamate; read-out: EC50
Item-by-item account of log10(EC50)
measurement_kind: log10(EC50) (log10 of the value in nM)

compound	log10(EC50)
O=C1c2cc(COc3ccccc3)nn2CCN1CC1CC1(F)F (stereo not drawn) [Example 28]	2.24
COc1nccc(N2CCn3nc(COc4ccccc4)cc3C2=O)n1 [Example 110]	2.30
COc1nc(N2CCn3nc(COc4ccccc4)cc3C2=O)cnc1C [Example 102]	2.08
CC1Cn2nc(COc3ccccc3)cc2C(=O)N1CC1CC1 (stereo not drawn) [Example 136]	2.87
COc1cccnc1N1CCn2nc(COc3ccccc3)cc2C1=O [Example 79]	3.34
O=C1c2cc(COc3ccccc3)nn2CCN1c1ncccc1F [Example 81]	2.74
CC1Cn2nc(COc3ccccc3)cc2C(=O)N1c1ccc(F)cc1 (stereo not drawn) [Example 142]	1.81
O=C1c2cc(COc3ccccc3)nn2CC(CF)N1c1ccc(F)cc1 (stereo not drawn) [Example 269]	2.84

----------
# measured_target: human mGluR5a receptor (Homo sapiens, UniProt P41594)
# Construct: cDNA subcloned into pcDNA3.1(-)
# experiment_summary: Cell-based functional Ca2+ mobilization assay (FDSS), potentiation of glutamate EC20 response
# setup_conditions: maximum % effect in concentration-response curve, as percent of response to maximally effective glutamate
Threshold check on Emax (%): at or above 70% gives Satisfied, strictly below gives Not satisfied.

compound	label
Cc1ccnc(OCc2cc3n(n2)CCN(c2ccc(F)cc2)C3=O)c1	Not satisfied
O=C1c2cc(COc3cccc(F)c3)nn2CCN1c1ccc(F)cc1	Not satisfied
O=C1c2cc(COc3ccccc3)nn2CC(CO)N1c1ccc(F)cc1 (centres unmarked) [Example 265]	Not satisfied
O=C1c2cc(COc3ccccc3)nn2CCN1c1ncccc1F	Not satisfied
COCc1cc(F)ccc1N1CCn2nc(COc3ccccc3)cc2C1=O	Satisfied
COc1ccc(N2CCn3nc(COc4ccccc4)cc3C2=O)cc1	Not satisfied
Cc1cc(F)ccc1N1CCn2nc(COc3ccccc3)cc2C1=O	Not satisfied
O=C1c2cc(COc3ccccc3)nn2CCN1c1ccc(F)cc1F	Satisfied
CN(C)c1ccc(F)c(N2CCn3nc(COc4ccccc4)cc3C2=O)n1	Satisfied
Cn1cncc1N1CCn2nc(COc3ccccc3)cc2C1=O	Not satisfied
COc1nc(N2CCn3nc(COc4ccccc4)cc3C2=O)ccc1F	Not satisfied
COc1cc(N2CCn3nc(COc4ccccc4)cc3C2=O)ncn1	Not satisfied
O=C1c2cc(COc3ccccc3)nn2C(CO)CN1c1ccc(F)cc1 (racemic)	Satisfied
Cc1ccccc1N1CCn2nc(COc3ccccn3)cc2C1=O	Not satisfied
N#Cc1cccc(OCc2cc3n(n2)CCN(c2ccc(F)cc2)C3=O)c1	Not satisfied
CC1Cn2nc(COc3ccccc3)cc2C(=O)N1CC1CC1 (centres unmarked)	Not satisfied
O=C1c2cc(COc3ccccc3)nn2CCN1c1ccncc1F	Satisfied
O=C1c2cc(COc3ccccc3)nn2CCN1c1ccc(F)cn1	Satisfied
Cc1cccc(N2CCn3nc(COc4ccccn4)cc3C2=O)c1	Not satisfied
COc1nccnc1N1CCn2nc(COc3ccc(F)cc3)cc2C1=O	Not satisfied
CNc1cccc(OCc2cc3n(n2)CCN(c2ccc(F)cc2)C3=O)n1	Not satisfied
O=c1[nH]ccn2nc(COc3ccccc3)cc12	Not satisfied
CC1CN(c2ccc(F)cc2)C(=O)c2cc(COc3ccccn3)nn21 (single isomer, unassigned)	Not satisfied
Cc1cc(F)cnc1N1CCn2nc(COc3ccccc3)cc2C1=O	Satisfied
